Cited source for all entries: ChEMBL document CHEMBL1201862

method notes: Luminescence Cell-Based Dose Retest to Confirm Inhibitors of Cancer Stem Cells. [Related pubchem assays (depositor defined):AID2717, AID2721];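 also: cells exposed to compound for roughly 70 hours or longer before luminescence read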
Assay type: functional
condition set: Homo sapiens
The source made the active and inactive calls. Rule as the data show it: actives have a measured AC50 and inactives only a lower limit.
reported endpoint: AC50

Input line: What value of AC50 has been recorded for this entry: CN1CCN(C2Cc3ccc(F)cc3Sc3cc(F)c(Cl)cc32)CC1 (centres undefined)
Output line: 6.08 µM (active)

Input line: What value of AC50 has been recorded for this entry: O=C1C(C2=NC(c3ccccn3)C3C(=O)N(c4ccc(Cl)cc4Cl)C(=O)C23)=C(O)c2ccccc21 (centres undefined)
Output line: 13.6 µM (active)

Input line: What value of AC50 has been recorded for this entry: Cc1c(-c2cccc(Cl)c2)nc2ccccc2c1C(=O)OC/C(O)=C(\C#N)c1nc2ccccc2[nH]1
Output line: 1.75 µM (active)

Input line: What value of AC50 has been recorded for this entry: N#C/C(=C/c1cn(-c2ccccc2)nc1-c1cccc(OCc2ccccc2)c1)C(=O)NCCCn1ccnc1
Output line: 5.32 µM (active)
